test system: PXR homodimer (NR concentration 270 nM); assay: PBM binding z-score (relative to random genomic background probes); higher = stronger binding; sequences stand for … in GC…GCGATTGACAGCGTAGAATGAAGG
Provide the reported PBM binding z-score of each item.
Give the value as a plain number.

**Q:** For the sequence `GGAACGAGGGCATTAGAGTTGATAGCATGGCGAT` , what PBM binding z-score is on record?
**A:** 0.854

**Q:** For the sequence `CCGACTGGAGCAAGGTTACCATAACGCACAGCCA` , what PBM binding z-score is on record?
**A:** -0.0714

**Q:** For the sequence `AGAACGAGGGCAATGACTTGATAGCACGGGTGGC` , what PBM binding z-score is on record?
**A:** 0.000958

**Q:** For the sequence `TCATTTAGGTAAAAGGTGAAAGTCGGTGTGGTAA` , what PBM binding z-score is on record?
**A:** 0.93

**Q:** For the sequence `ATCGGAAGGTCGTGAGGTGAGTATACAGAAAGGC` , what PBM binding z-score is on record?
**A:** 0.639

**Q:** For the sequence `TCATATAGGTAAATGCTAGGTGAGAGTCCGATCT` , what PBM binding z-score is on record?
**A:** 0.158

**Q:** For the sequence `TCTTGTAGATCAAAGTTTAAGAAAGCCGAAGCCT` , what PBM binding z-score is on record?
**A:** 0.403

**Q:** For the sequence `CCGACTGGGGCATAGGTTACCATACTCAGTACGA` , what PBM binding z-score is on record?
**A:** -0.441

**Q:** For the sequence `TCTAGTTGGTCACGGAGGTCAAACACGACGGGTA` , what PBM binding z-score is on record?
**A:** 2.87

**Q:** For the sequence `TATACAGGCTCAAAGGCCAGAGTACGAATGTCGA` , what PBM binding z-score is on record?
**A:** -0.323

**Q:** For the sequence `TGAATGCGGTTAAAGATCAGGGAACGTGGCGTCG` , what PBM binding z-score is on record?
**A:** -0.492

**Q:** For the sequence `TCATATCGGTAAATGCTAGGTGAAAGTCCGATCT` , what PBM binding z-score is on record?
**A:** -0.111

----------
system: VDR:RXRa (NR concentration 270 nM, RXRa partner concentration 90 nM); experiment: PBM binding z-score (relative to random genomic background probes); higher = stronger binding; sequences stand for … in GC…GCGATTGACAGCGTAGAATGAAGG
observed.property: PBM binding z-score
Give the value as a plain number.

**Q:** For the sequence `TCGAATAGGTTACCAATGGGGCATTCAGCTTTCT` , what PBM binding z-score is on record?
**A:** 0.811

**Q:** For the sequence `TAGGCTAGGTCATTCAGGGGCCAGTATAGAAAGC` , what PBM binding z-score is on record?
**A:** 3.24

**Q:** For the sequence `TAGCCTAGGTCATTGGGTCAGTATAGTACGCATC` , what PBM binding z-score is on record?
**A:** 4.26

**Q:** For the sequence `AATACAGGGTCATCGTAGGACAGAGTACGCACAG` , what PBM binding z-score is on record?
**A:** 5.5

**Q:** For the sequence `TCAGACAGGTGAAGGTAACTAAGGTACGCAGTCG` , what PBM binding z-score is on record?
**A:** 1.01

**Q:** For the sequence `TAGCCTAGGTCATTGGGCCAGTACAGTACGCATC` , what PBM binding z-score is on record?
**A:** 2.19

**Q:** For the sequence `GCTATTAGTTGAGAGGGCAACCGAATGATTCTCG` , what PBM binding z-score is on record?
**A:** 0.311

**Q:** For the sequence `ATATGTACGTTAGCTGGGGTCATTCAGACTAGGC` , what PBM binding z-score is on record?
**A:** 5.16

**Q:** For the sequence `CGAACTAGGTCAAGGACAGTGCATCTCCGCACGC` , what PBM binding z-score is on record?
**A:** 2.39

**Q:** For the sequence `TCTATTAGGTGAAGGGCAACCGACGAGTCCGTTT` , what PBM binding z-score is on record?
**A:** 0.783

**Q:** For the sequence `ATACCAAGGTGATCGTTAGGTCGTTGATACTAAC` , what PBM binding z-score is on record?
**A:** 0.566

**Q:** For the sequence `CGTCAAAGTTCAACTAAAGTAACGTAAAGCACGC` , what PBM binding z-score is on record?
**A:** 4.08
